Assay: binders of probe aFGF10 on microarray, primary screen, stem cell growth factor project, biochemical, small-molecule microarray, fluorescence 635/667 (AID 1071);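 note: score merges 667 nm spot intensity and signal to noise from triplicate slides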
Conditions: higher = more signal
Provide the recorded composite z-score for the entries that follow.

Q: Would you mind telling me what composite z-score value was observed for [N-]=[N+]=NCc1ccccc1C[C@]1(C(=O)NCC(O)CO)N=C(c2ccc(OCCCO)cc2)O[C@H]1c1ccccc1CN=[N+]=[N-] (stereo partly drawn) ?
A: 1.14

Q: Would you mind telling me what composite z-score value was observed for `COCCCNC(=O)[C@@]1(Sc2ccc(C)cc2)CC(=O)N(C2Cc3ccccc3C2)[C@@H]1c1ccc(CO)cc1I` ?
A: -0.379

Q: Would you mind telling me what composite z-score value was observed for `CC(=O)N1Cc2ccccc2C[C@]2(N=C(c3ccc(OCCCO)cc3)O[C@@H]2c2ccccc2)C1=O` ?
A: 0.458

###

Provide the recorded composite z-score for the entries that follow.
Assay: small-molecule microarray binders of probe aShh, primary screen, biochemical, biotinylated probe, 635/667 nm fluorescence (AID 1114);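 note: probe is biotin-labelled aShh protein from a stem cell growth factor screen; measures binding of labelled protein to compounds printed on the slide; score merges feature fluorescence at 667 nm with signal-to-noise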
Conditions: higher = more signal
Form rule: numeric answer, no unit written next to it.

Q: Would you mind telling me what composite z-score value was observed for `O=C1O[C@@H](c2ccccc2)[C@@H](c2ccccc2)N2[C@@H](c3ccc(O)cc3)[C@]3(C(=O)Nc4ccc(C#CCCO)cc43)[C@@H](C(=O)Nc3nc4ccccc4s3)[C@H]12` ?
A: 0.108

Q: Would you mind telling me what composite z-score value was observed for `C=C(/C=C/CNS(=O)(=O)c1ccc(C)cc1)[C@H](O)[C@H]1CCCN1S(=O)(=O)c1ccccc1[N+](=O)[O-]` ?
A: -0.138

Q: Would you mind telling me what composite z-score value was observed for `CCOC(=O)C1=C[C@@H](c2ccccc2)N(S(=O)(=O)c2ccc(C)cc2)[C@H]1c1cccc(Cl)c1` ?
A: -0.0289

###

Experiment: PSAC antagonists in infected red cells, primary screen, cell-based, P. falciparum Indochina, OD700, 2 h (AID 1155);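 note: lysis reports solute entry through the parasite surface anion channel PSAC; channel blockers reduce lysis of infected cells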
Settings: P. falciparum Indochina infected erythrocytes, osmotic lysis OD700; higher = more signal, called active from +8 up or from −8 down
endpoint.name: z-score
Form rule: numeric answer, no unit written next to it.

Q: Would you mind telling me what z-score value was observed for O=C1OCC=C[C@H]2OC34C=CCN(c5ccc(Cl)cc5)C(=O)[C@H]3N(CCCCCO)C(=O)[C@@H]4[C@@H]12 (some centres undefined) ?
A: 0.622

Q: Would you mind telling me what z-score value was observed for COc1cc(OC)c(C(O)C2C=CC3C(=O)N(c4ccccc4)C(=O)C3N2Nc2ccc(C#N)cc2)cc1Br (centres undefined) ?
A: 11.4

Q: Would you mind telling me what z-score value was observed for `CN(C)CCCNC(=O)[C@@]1(C)c2ccccc2C(=O)N(Cc2cc(C(F)(F)F)cc(C(F)(F)F)c2)[C@H]1c1ccc(CO)cc1` ?
A: -0.0111

Q: Would you mind telling me what z-score value was observed for `Cc1ccc(F)cc1S(=O)(=O)N[C@@H]1CCN(Cc2ccc(OC(C)C)cc2)C1` ?
A: 0.45

Q: Would you mind telling me what z-score value was observed for `COC(=O)[C@@]1(Cc2ccc(OC)cc2)[C@H]2c3cc(C(=O)N(C)C)n(Cc4nc5ccccc5[nH]4)c3C[C@H]2CN1C(=O)c1ccccc1` ?
A: 0.724

Q: Would you mind telling me what z-score value was observed for `CO[C@H]1O[C@H](CO)[C@@H](OC(=O)Nc2ccc(Oc3ccccc3)cc2)[C@H](OC(=O)Nc2ccccc2-c2ccccc2)[C@@H]1OC(=O)Nc1ccccc1-c1ccccc1` ?
A: 1.04

Q: Would you mind telling me what z-score value was observed for `COCCOC(=O)N1C(=O)[C@@]2(c3ccccc31)[C@H](C(=O)N1CCN(c3ncccn3)CC1)[C@H]1C(=O)O[C@H](c3ccccc3)[C@H](c3ccccc3)N1[C@@H]2c1ccc(OCCO)cc1` ?
A: 3.96

Q: Would you mind telling me what z-score value was observed for C=C1C2CC3C(=C4C(CO[C@@H]4[C@H]4CCCN4S(=O)(=O)c4ccccc4[N+](=O)[O-])C4C(=O)N(C)C(=O)C34)CC2C(=O)N1C (some centres undefined) ?
A: 0.0975

Q: Would you mind telling me what z-score value was observed for `C=C(COC)/C(=C/C[C@@H](OC(=O)c1ccncc1)c1cccc(OCCO)c1)c1cnc2ccccc2c1` ?
A: 6.49

Q: Would you mind telling me what z-score value was observed for C=CCC(OC(C)=O)[C@@H]1[C@@H](N(Cc2cc3ccccc3o2)C(=O)Cc2ccc(F)cc2)c2cc(OCCCO)ccc2N1C(=O)c1ccc2ccccc2n1 (some centres undefined) ?
A: 0.213

Q: Would you mind telling me what z-score value was observed for `CCCC=C(CCC)[C@@H](NP(=O)(c1ccccc1)c1ccccc1)c1ccc(C(F)(F)F)cc1` ?
A: -0.647

Q: Would you mind telling me what z-score value was observed for `CCOC(=O)C[C@H]1[C@H](OC(=O)c2ccc(-c3ccccc3)cc2)[C@@H](NC(=O)c2ccc3ccccc3c2)c2cc(OCCCO)ccc2N1C(=O)c1ccc2ccccc2n1` ?
A: 0.568

Q: Would you mind telling me what z-score value was observed for `NCCCCCCNC(=O)[C@@H]1C[C@@H]2C(=O)N3CCC[C@H]3C(=O)N2[C@@H]1c1ccc(O)cc1` ?
A: 0.026

Q: Would you mind telling me what z-score value was observed for `CC(C)(C)OC(=O)CC[C@@]1(C(=O)O)N=C(c2ccc(OCCCO)cc2)O[C@@H]1c1ccccc1CN=[N+]=[N-]` ?
A: 10
